In what follows, each item is paired with its pIC50 for 5-HT2 receptors (Rattus norvegicus, UniProt P14842).
Remember the convention: pIC50 equals -log10 of concentration in molar.

The cases that follow already have their pIC50 on record.
| Compound | pIC50 |
| --- | --- |
| CN1CCN([C@@H]2C[C@@H](c3ccc(F)cc3)c3cccc(F)c32)CC1(C)C (racemic) [Compound 36] | 8.01 |
| CC1(C)CN([C@@H]2C[C@@H](c3ccc(F)cc3)c3ccc(Cl)cc32)CCN1CCCO (racemic) [Compound 39] | 8.52 |
| CN1CCN([C@@H]2C[C@@H](c3ccc(F)cc3)c3cc(Cl)c(Cl)cc32)CC1(C)C (racemic) [Compound 9] | 8.23 |
| Cc1ccc2c(c1)[C@H](N1CCN(C)C(C)(C)C1)C[C@H]2c1ccc(F)cc1 (racemic) [Compound 5] | 8.47 |
| CN1CCN([C@@H]2C[C@@H](c3ccc(F)cc3)c3ccc(Cl)cc32)CC12CCC2 (racemic) [Compound 28] | 8.52 |

Turning now to a further record.
Form entry - test system: 5-HT2 receptors (Rattus norvegicus, UniProt P14842); read-out: pIC50; compound: CC1(C)CN([C@@H]2C[C@@H](c3ccsc3)c3ccc(Cl)cc32)CCN1 (racemic) [Compound 13] 9.00

* * *

Tested System: DA D2 receptors (Rattus norvegicus, UniProt P61169)
Construct: DA D2 receptors in rat striatal membranes; from tissue; host or cells: rat striatal membranes
Sequence (P61169 whole entry): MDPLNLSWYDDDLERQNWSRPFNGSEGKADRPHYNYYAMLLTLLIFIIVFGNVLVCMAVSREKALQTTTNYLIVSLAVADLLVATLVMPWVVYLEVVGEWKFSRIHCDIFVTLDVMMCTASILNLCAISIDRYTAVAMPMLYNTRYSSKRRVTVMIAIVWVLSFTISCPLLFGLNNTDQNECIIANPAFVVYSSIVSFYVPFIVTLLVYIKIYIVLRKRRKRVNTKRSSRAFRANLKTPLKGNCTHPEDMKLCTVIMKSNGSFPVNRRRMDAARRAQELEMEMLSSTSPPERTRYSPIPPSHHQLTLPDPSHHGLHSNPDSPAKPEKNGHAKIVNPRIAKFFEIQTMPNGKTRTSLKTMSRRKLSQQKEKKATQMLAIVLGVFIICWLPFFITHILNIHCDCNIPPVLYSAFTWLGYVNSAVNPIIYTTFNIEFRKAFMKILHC
Assay Summary: Inhibition of 3H-spiperone binding to DA D2 receptors in rat striatal membranes
Assay Conditions: rat striatal membranes, 3H-spiperone; read-out: Receptor Binding; IC50, D2 3H-Spi
Lab note - cut at 10 nM for IC50: TRUE if strictly below, FALSE if not.

The examples below pair each entry with its known result.
| Molecule | Class Assignment |
| --- | --- |
| CN1CCN([C@@H]2C[C@@H](c3ccsc3)c3ccc(Cl)cc32)CC12CCCC2 (racemic) [Compound 30] | TRUE |
| CN1CCN([C@@H]2C[C@@H](c3ccc(F)cc3)c3ccc(Cl)cc32)CC12CCCCC2 (racemic) [Compound 32] | FALSE |
| CC1(C)CN([C@@H]2C[C@@H](c3ccc(F)cc3)c3ccc(Cl)cc32)CCN1 (racemic) [Compound 1] | TRUE |
| CC1(C)CN([C@@H]2C[C@@H](c3ccsc3)c3ccc(Cl)cc32)CCN1 (racemic) [Compound 13] | TRUE |
| CN1CCN([C@@H]2C[C@@H](c3ccc(F)cc3)c3cccc(F)c32)CC1(C)C (racemic) [Compound 36] | FALSE |
| CN1CCN([C@@H]2C[C@@H](c3ccccc3F)c3ccc(Cl)cc32)CC1(C)C (racemic) [Compound 11] | FALSE |
| CC1(C)CN([C@@H]2C[C@@H](c3ccsc3)c3ccc(Cl)cc32)CCN1CCO (racemic) [Compound 45] | TRUE |
| CN1CCN([C@@H]2C[C@@H](c3ccc(F)cc3)c3cccc(Cl)c32)CC1(C)C (racemic) [Compound 17] | FALSE |

IC50 under 10 nM? Item: CN1CCN([C@@H]2C[C@@H](c3ccc(F)cc3)c3ccc(Cl)cc32)CC12CCC2 (racemic) [Compound 28] TRUE

IC50 under 10 nM? Item: CCC1(CC)CN([C@@H]2C[C@@H](c3ccc(F)cc3)c3ccc(Cl)cc32)CCN1 (racemic) [Compound 23] FALSE

IC50 under 10 nM? Item: CN1CCN([C@@H]2C[C@@H](c3ccsc3)c3ccc(Cl)cc32)CC1(C)C (racemic) [Compound 14] TRUE

IC50 under 10 nM? Item: CC(C)C1CN([C@@H]2C[C@@H](c3ccc(F)cc3)c3ccc(Cl)cc32)CCN1 (relative stereo) [Compound 19] FALSE

IC50 under 10 nM? Item: CN1CCN([C@@H]2C[C@@H](c3cccc(F)c3)c3ccc(Cl)cc32)CC1(C)C (racemic) [Compound 12] FALSE

* * *

Tested System: DA D1 receptor (Rattus norvegicus, UniProt P18901)
Sequence (P18901 whole entry): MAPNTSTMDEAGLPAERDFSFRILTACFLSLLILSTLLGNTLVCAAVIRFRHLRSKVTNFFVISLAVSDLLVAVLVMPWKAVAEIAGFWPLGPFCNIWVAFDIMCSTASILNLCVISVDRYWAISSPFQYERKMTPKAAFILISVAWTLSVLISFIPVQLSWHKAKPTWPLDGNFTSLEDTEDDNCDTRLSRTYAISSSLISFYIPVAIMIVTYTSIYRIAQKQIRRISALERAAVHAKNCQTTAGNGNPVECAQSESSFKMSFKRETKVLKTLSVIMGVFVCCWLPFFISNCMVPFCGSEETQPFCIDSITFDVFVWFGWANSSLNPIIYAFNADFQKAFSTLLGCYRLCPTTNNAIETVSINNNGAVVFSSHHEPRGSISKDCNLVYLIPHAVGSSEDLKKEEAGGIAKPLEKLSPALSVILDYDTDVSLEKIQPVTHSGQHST
Assay Summary: biochemical
Type: binding
Assay Conditions: rat striatal membranes, 3H-SCH 23390; read-out: Receptor Binding; IC50, D1 3H-SCH
# pIC50 per entry
Remember the convention: pIC50 equals -log10 of concentration in molar.

The cases that follow already have their pIC50 on record.
| Compound | pIC50 |
| --- | --- |
| CC(C)C1CN([C@@H]2C[C@@H](c3ccc(F)cc3)c3ccc(Cl)cc32)CCN1C (relative stereo) [Compound 22] | 7.37 |
| CCC1(CC)CN([C@@H]2C[C@@H](c3ccc(F)cc3)c3ccc(Cl)cc32)CCN1C (racemic) | 8.06 |
| OC1CCN2CCN(C3CC(c4ccc(F)cc4)c4ccc(F)cc43)CC2C1 (stereo not shown) | 7.52 |

Given CC(C)C1CN([C@@H]2C[C@@H](c3ccc(F)cc3)c3ccc(Cl)cc32)CCN1C (relative stereo) [Compound 21] , state its recorded pIC50. 8.49

* * *

Tested System: DA D1 receptor (Rattus norvegicus)
Assay Summary: biochemical
Format: binding
Assay Conditions: read-out: Receptor Binding; IC50, D1 3H-SCH
Attribute Measured: pIC50
Remember the convention: pIC50 equals -log10 of concentration in molar.

Given O=C1NCCN1CCN1CCN([C@@H]2C[C@@H](c3ccc(F)cc3)c3ccccc32)CC1 [Irindalone, reference compound] , state its recorded pIC50. 6.05

* * *

In what follows, each item is paired with its pIC50 for 5-HT2 receptors (Rattus norvegicus).
Remember the convention: pIC50 equals -log10 of concentration in molar.

The cases that follow already have their pIC50 on record.
| Molecule | Tested System | Recorded Measurement |
| --- | --- | --- |
| CN1CCN([C@@H]2C[C@@H](c3ccsc3)c3ccc(Cl)cc32)CC1(C)C (racemic) | 5-HT2 receptors (Rattus norvegicus) | 8.77 |
| CN1CCN([C@@H]2C[C@@H](c3ccccc3)c3ccc(Cl)cc32)CC1(C)C (racemic) | 5-HT2 receptors (Rattus norvegicus) | 8.49 |
| CN1CCN([C@@H]2C[C@@H](c3ccc(F)cc3)c3ccc(Br)cc32)CC1(C)C (racemic) | 5-HT2 receptors (Rattus norvegicus) | 8.52 |
| CC1CN([C@@H]2C[C@@H](c3ccc(F)cc3)c3ccc(Cl)cc32)C(C)CN1C (relative stereo) | 5-HT2 receptors (Rattus norvegicus) | 8.47 |
| CN1CCN([C@@H]2C[C@@H](c3ccccc3)c3ccccc32)CC1(C)C (racemic) | 5-HT2 receptors (Rattus norvegicus) | 7.68 |
| OCCN1CCN([C@@H]2C[C@@H](c3ccc(F)cc3)c3ccc(Cl)cc32)CC12CCCC2 (relative stereo) [Compound 44] | 5-HT2 receptors (Rattus norvegicus) | 8.22 |
| Fc1ccc([C@@H]2C[C@@H](N3CCNC4(CCCCC4)C3)c3cc(Cl)ccc32)cc1 (racemic) | 5-HT2 receptors (Rattus norvegicus) | 7.60 |
| Cc1ccc2c(c1)[C@H](N1CCNC(C)(C)C1)C[C@H]2c1ccc(F)cc1 (racemic) | 5-HT2 receptors (Rattus norvegicus) | 8.82 |
| OCCN1CCN([C@@H]2C[C@@H](c3ccc(F)cc3)c3ccc(Cl)cc32)CC12CCCC2 (single isomer, unassigned) [Compound -44] | 5-HT2 receptors (Rattus norvegicus) | 8.60 |
| CN1CCN([C@@H]2C[C@@H](c3ccc(F)cc3)c3ccc(Cl)cc32)CC1(C)C (single isomer, unassigned) | 5-HT2 receptors (Rattus norvegicus) | 5.70 |

Form entry - test system: 5-HT2 receptors (Rattus norvegicus); read-out: pIC50; molecule: CN1CCN([C@@H]2C[C@@H](c3ccc(F)cc3)c3ccc(F)cc32)CC1(C)C (racemic) 8.44

Form entry - test system: 5-HT2 receptors (Rattus norvegicus); read-out: pIC50; molecule: CC1(C)CN([C@@H]2C[C@@H](c3ccc(F)cc3)c3ccc(Cl)cc32)CCN1 (racemic) 8.49

Form entry - test system: 5-HT2 receptors (Rattus norvegicus); read-out: pIC50; molecule: CN1CCN([C@@H]2C[C@@H](c3ccc(F)cc3)c3cc(Cl)ccc32)CC1(C)C (racemic) 8.03

Form entry - test system: 5-HT2 receptors (Rattus norvegicus); read-out: pIC50; molecule: CN1CCN([C@@H]2C[C@@H](c3ccc(F)cc3)c3ccc(C(F)(F)F)cc32)CC1(C)C (racemic) 8.35

* * *

Tested System: DA D2 receptors (Rattus norvegicus, UniProt P61169)
Construct: DA D2 receptors in rat striatal membranes; from tissue; host or cells: rat striatal membranes
Assay Summary: Inhibition of 3H-spiperone binding to DA D2 receptors in rat striatal membranes
Assay Conditions: rat striatal membranes, 3H-spiperone; read-out: Receptor Binding; IC50, D2 3H-Spi
# pIC50 per entry
Remember the convention: pIC50 equals -log10 of concentration in molar.

The cases that follow already have their pIC50 on record.
| Compound | Recorded Measurement |
| --- | --- |
| CC1CN([C@@H]2C[C@@H](c3ccc(F)cc3)c3ccc(Cl)cc32)CCN1C (mixture of isomers) | 7.92 |
| CCC1(CC)CN([C@@H]2C[C@@H](c3ccc(F)cc3)c3ccc(Cl)cc32)CCN1C (racemic) | 7.42 |
| CN1CCN([C@@H]2C[C@@H](c3ccc(F)cc3)c3cc(Cl)c(Cl)cc32)CC1(C)C (racemic) | 7.36 |
| CC(C)C1CN([C@@H]2C[C@@H](c3ccc(F)cc3)c3ccc(Cl)cc32)CCN1C (relative stereo) [Compound 22] | 6.40 |
| CC1(C)CN([C@@H]2C[C@@H](c3ccc(F)cc3)c3ccc(C(F)(F)F)cc32)CCN1 (racemic) | 8.28 |

Given CC(C)C1CN([C@@H]2C[C@@H](c3ccc(F)cc3)c3ccc(Cl)cc32)CCN1C (relative stereo) [Compound 21] , state its recorded pIC50. 7.44

Given CC(C)N1CCN([C@@H]2C[C@@H](c3ccc(F)cc3)c3ccc(Cl)cc32)CC1C (mixture of isomers) , state its recorded pIC50. 7.77

Given CN1CCN([C@@H]2C[C@@H](c3ccccc3)c3ccccc32)CC1(C)C (racemic) , state its recorded pIC50. 6.85

Given OC1CCN2CCN(C3CC(c4ccc(F)cc4)c4ccc(F)cc43)CC2C1 (stereo not shown) , state its recorded pIC50. 5.96

Given Fc1ccc([C@@H]2C[C@@H](N3CCN4CCCCC4C3)c3cc(Cl)ccc32)cc1 (mixture of isomers) , state its recorded pIC50. 7.96

Given Fc1ccc(C2CC(N3CCN4CCCCC4C3)c3cc(F)ccc32)cc1 (stereo not shown) , state its recorded pIC50. 6.49

Given CN1CCN([C@@H]2C[C@@H](c3ccc(F)cc3)c3ccc(Br)cc32)CC1(C)C (racemic) , state its recorded pIC50. 8.07

Given CN1CCN([C@@H]2C[C@@H](c3ccc(F)cc3)c3cc(Cl)ccc32)CC1(C)C (racemic) , state its recorded pIC50. 6.47

Given Cc1ccc2c(c1)[C@H](N1CCN(C)C(C)(C)C1)C[C@H]2c1ccc(F)cc1 (racemic) , state its recorded pIC50. 8.32

Given CN1CCN([C@@H]2C[C@@H](c3ccc(F)cc3)c3ccc(F)cc32)CC1(C)C (racemic) , state its recorded pIC50. 7.96

Given C[C@@H]1CN([C@@H]2C[C@@H](c3ccc(F)cc3)c3ccc(C(F)(F)F)cc32)C[C@H](C)N1 (racemic) , state its recorded pIC50. 7.48
